The origin of these recorded values is patent EP4603105A1.

System: human lung cancer strain NCI-H441
Type: cell-based
pIC50: −log10 of the molar value. Where a SMILES comes first, the peptide text is derived from it. Bridges are numbered along the chain shown (N, C = ends). [ ]: non-standard residue; d: D form. The star is where a group is joined. hPhe(3-Cl-4-CF3) = N[C@@H](CCc1ccc(C(F)(F)F)c(Cl)c1)C(=O)O; NPrPhe(4-CF3) = CCCN[C@@H](Cc1ccc(C(F)(F)F)cc1)C(=O)O; NMeGly(cPent) = CN[C@H](C(=O)O)C1CCCC1; Hyp = O=C(O)[C@@H]1C[C@@H](O)CN1; NMeD = CN[C@@H](CC(=O)O)C(=O)O; NMeL = CN[C@@H](CC(C)C)C(=O)O; Morpholide = C1CN(*)CCO1; Ac5c = NC1(C(=O)O)CCCC1; NEtG = CCNCC(=O)O; Sar = CNCC(=O)O
Please enter Y where pIC50 is greater than or equal to 8, and N where it is lower.

For orientation, consider the following solved cases.
Molecule | Classification
CCOC[C@H]1C(=O)N[C@@H]([C@@H](C)CC)C(=O)N(C2CC2)CC(=O)N(C)[C@H]2C/C=C\CCN(C2=O)[C@@H](CC2CCCCC2)C(=O)N(C)CC(=O)N[C@@H](CCc2ccc(C(F)(F)F)c(OC)c2)C(=O)N2C[C@H](OCC)C[C@H]2C(=O)N(C)C2(CCC2)C(=O)N(C)[C@@H](C2CCCC2)C(=O)N(C)[C@H](C(=O)N(C)C)CC(=O)N1C | N
C#CC[C@H]1C(=O)N[C@@H]([C@@H](C)CC)C(=O)N(C)CC(=O)N(C)[C@H]2C/C=C\CCN(C2=O)[C@@H](Cc2ccc(C(F)(F)F)cc2)C(=O)N(C)CC(=O)N[C@@H](CCc2ccc(C(F)(F)F)c(OC)c2)C(=O)N2C[C@H](C)[C@H]2C(=O)NC2(CCC2)C(=O)N(C)[C@@H](C2CCCC2)C(=O)N(C)[C@H](C(=O)N2CCOCC2)CC(=O)N1C | N
CC[C@H](C)[C@@H]1NC(=O)[C@H](CC(C)C)N(C)C(=O)C[C@@H](C(=O)N(C)C)N(C)C(=O)[C@H](C2CCCC2)N(C)C(=O)C2(CCC2)NC(=O)[C@@H]2[C@@H](OCC(F)F)CCN2C(=O)[C@H](CCc2cc(F)c(C(F)(F)F)c(F)c2)NC(=O)CN(C)C(=O)[C@H](Cc2ccc(C(F)(F)F)cc2)N2CC/C=C\C[C@@H](C2=O)N(C)C(=O)CN(C)C1=O | N

Please find the next molecule below.
Data request: Hello, I need to know if CCCN1C(=O)CN(C)C(=O)CN(CC)C(=O)[C@H]([C@@H](C)CC)NC(=O)[C@H](CC(C)C)N(C)C(=O)C[C@@H](C(=O)N2CCOCC2)N(C)C(=O)[C@H](C2CCCC2)N(C)C(=O)C2(CCCC2)NC(=O)[C@@H]2C[C@@H](OC)CN2C(=O)[C@H](CCc2ccc(C(F)(F)F)c(Cl)c2)NC(=O)CN(C)C(=O)[C@@H]1Cc1ccc(C(F)(F)F)cc1 [PP0296] ([NMeL]I[NEtG][Sar][NPrPhe(4-CF3)][Sar][hPhe(3-Cl-4-CF3)][Hyp](Me)[Ac5c][NMeGly(cPent)][NMeD]-Morpholide; lactam N-11) has measured pIC50 not below 8. Thanks!
Data returned: Y
